- SYSTEM TESTED: Estrogen receptor (Homo sapiens) (UniProt P03372)
- Sequence (P03372 whole entry, looked up): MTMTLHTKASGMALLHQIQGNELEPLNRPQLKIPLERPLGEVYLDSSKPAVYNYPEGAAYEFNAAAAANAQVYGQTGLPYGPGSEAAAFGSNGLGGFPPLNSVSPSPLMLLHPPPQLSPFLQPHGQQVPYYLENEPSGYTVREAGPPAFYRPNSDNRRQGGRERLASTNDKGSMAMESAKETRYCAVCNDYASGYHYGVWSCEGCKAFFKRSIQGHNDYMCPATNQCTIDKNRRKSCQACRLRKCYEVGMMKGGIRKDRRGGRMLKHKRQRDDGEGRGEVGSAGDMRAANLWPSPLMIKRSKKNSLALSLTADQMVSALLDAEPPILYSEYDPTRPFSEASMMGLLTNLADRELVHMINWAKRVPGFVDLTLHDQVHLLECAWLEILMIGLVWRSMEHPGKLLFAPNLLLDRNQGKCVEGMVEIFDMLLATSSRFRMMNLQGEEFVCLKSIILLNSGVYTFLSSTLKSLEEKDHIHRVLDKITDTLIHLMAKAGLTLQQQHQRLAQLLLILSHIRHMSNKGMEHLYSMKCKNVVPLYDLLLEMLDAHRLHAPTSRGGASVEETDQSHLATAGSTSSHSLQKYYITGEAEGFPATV
- ASSAY NOTES: ERalpha ligand binders by competition, primary screen, cell-based, Cos7 ERalpha-GFP, flow cytometry (AID 1211);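 further: 0% = DMSO vehicle wells and 100% = no E2-Alexa633 signal left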
- MEASUREMENT SETUP: fluorescent ligand competition, binding inhibition, at 0.1 µM, stronger effect = higher value
MEASUREMENT NAME: inhibition of ligand binding (%)
Answers are plain numbers, in %.

Some solved entries appear below for comparison.
{"MOLECULE": "Oc1ccccc1N=Nc1nc(-c2ccccc2)c(-c2ccccc2)[nH]1", "SYSTEM TESTED": "Estrogen receptor (Homo sapiens) (UniProt P03372)", "TEST RESULT": 27}
{"MOLECULE": "CCOC(=O)C1CCCN(C(=O)c2ccc(CS(=O)(=O)c3ccc(C)cc3)o2)C1 (stereo unspecified)", "SYSTEM TESTED": "Estrogen receptor (Homo sapiens) (UniProt P03372)", "TEST RESULT": 6}
{"MOLECULE": "O=C(Cc1cccs1)Nc1nnc(Cc2ccccc2)s1", "SYSTEM TESTED": "Estrogen receptor (Homo sapiens) (UniProt P03372)", "TEST RESULT": 31}
{"MOLECULE": "CCOC(=O)Cc1csc(NC(=O)Cc2cccs2)n1", "SYSTEM TESTED": "Estrogen receptor (Homo sapiens) (UniProt P03372)", "TEST RESULT": 12}
{"MOLECULE": "COc1cc2c(cc1OC)C(Cc1ccc(O)cc1)N(C)CC2 (stereo unspecified)", "SYSTEM TESTED": "Estrogen receptor (Homo sapiens) (UniProt P03372)", "TEST RESULT": 16}

Specify measured inhibition of ligand binding for "COc1ccccc1-c1nnc2sc(-c3cnccn3)nn12" . 3
